- Protocol details: yeast display, Sf9 membrane polyspecificity reagent, FACS + sequencing; frameworks hold sequencing errors
Property: polyreactivity (PSR sort gate)

Sample records with polyreactivity (PSR sort gate):
{"columns": ["Biosequence", "Property", "Test result"],
 "data": [
  ["QVQLVESGGGLVQAGGSLRLSCAASGSTFGKYAMGWYRQAPGKERELVAAISKSGGSTYYADSVKGRFTISRDNAKNTVYLQMNSLKPEDTAVYYCAADVTYGTKWAYDYWGQGTQVTVSS", "polyreactivity (PSR sort gate)", "high polyreactivity"],
  ["QVQRVESGGGLVQAGGSLRLSCAASGRTFSKNAMGRTRQAPGQETELVAAISGSGGSTYYADSVKGRFTISRDNAKNTVYLQMNSLKPEDTAVYYCADRYTVRRSGYWGQGTQVTVSS", "polyreactivity (PSR sort gate)", "high polyreactivity"],
  ["QVQLVESGGGLVQAGGSLRLSCAASGFIFRYYAMGWYRQAPGKERELVAAITWSGGSTYYADSVKGRFTISRDNAKNTVYLQMNSLKPEDTAVYYCAADLYYFRYPGYDYWGQGTQVTVSS", "polyreactivity (PSR sort gate)", "high polyreactivity"],
  ["QVQLVESGGGLVQAGGSLRLSCAASGSTFSLNAMGWYRQAPGKERELVAAISNVGDTYYADSVKGRFTISRDNAKNTVYLQMNSLKPEDTAVYYCAADGASYYYEYDYWGQGTQVTVSS", "polyreactivity (PSR sort gate)", "low polyreactivity"],
  ["QDQLVESGGGLVQAGGSLRLSCAASGSTIPISVRGWYRQAPGKERELVAAITYSGGSTYYADSVKGRFTISRDNAKNTVYLQMNSLKPEDTAVYYCAAGVYRWHYLYKYTQRRVEYWGQGTQVTVSS", "polyreactivity (PSR sort gate)", "high polyreactivity"],
  ["QVQLVESGGGLVQAGGSLRLSCAASGRTFVTYVMGWYRQAPGKEREFVAAIRWSGGRTYYADSVKGRFTISRDNAKNTVYLQMNSLKPEDTAVYYCAAVYYDRSYRYEYWGQGTQVTVSS", "polyreactivity (PSR sort gate)", "high polyreactivity"],
  ["QVQLLESGGGLVQAGGSLRLSCAASGNLFHVNAMGWYRQAPGKERELVASISRRGGSTNYADSVKGRFTISRANAKNTVYLQMNSLKPEDTAVYYCATRLTSAVGRYLYDFGYWGQGTQVTVSS", "polyreactivity (PSR sort gate)", "high polyreactivity"],
  ["QVQLVESGGGLVQAGGSLRLSCAASGSIFFVYAMGWYTQAPGKERELVAGIRWSGGRTSYADSVKGRFTISRDNAKNTVYLQMNSLNQEDTAVYYCAAGCGVLPQQHYYYRYDYWGQGTQVTVSS", "polyreactivity (PSR sort gate)", "high polyreactivity"]
]}

Prompt: If you can, please state the reported polyreactivity (PSR sort gate) value of QVQLVESGGGLVQAGGSLRLSCAASGFIFLSYAMGWYRQAPGKESELVAAITSNGGSTYYADSVKGRFTISRDNAKNTVYLQMNSLKPEDTAVYYCSADSGYGPYYYWGQGTQVTVSS .
Completion: high polyreactivity

Prompt: Another sequence to look at: QVQLVESGGGLVQAGGSLRLSCAASGSIFASYAMGWYRQAPGKERELVAAISRSGGSTYYADSVKGRFTISRDNAKNTVYLQMNSLKPEDTAVYYCATGKIREDDYWGQGTQVTVSS
Completion: high polyreactivity

Prompt: Next: QVQLVESGRGLVQAGGSLRLSCAASGRIFRYYTMGWYRQAPGKERELVATISWNGSNTYYADSVKGRFTISRDNAKNTVYLQMNSLKPEDTAVYYCAAGVLPGLYNGARLFDYWGQGTQVTVSS
Completion: low polyreactivity

Prompt: What would you report for QVQLVESGGGLVQAGGSLRLSCAASGFIFTGYAMGWYRQAPGKERELVAAITRNGGSTYYADSVKGRFTISRDNAKNSVYLQMNSLKPEDTAVYYCAARGNRVSPEYYYWGQGTQVTVSS ?
Completion: high polyreactivity

Prompt: Also need QVQLVESGGGLVQSGGSLRLSCAASGSIFSYYAMGWYRQAPGKEREFVAPHSRSGGSTYYADSVKGRFTISRDNGKNTVYLQMKSLKPEDTAVYYCNAYSYSDAGDDGDYWGQGTQVTVSS , thanks.
Completion: low polyreactivity

Prompt: Moving on to QVQLVESGGGLVQAGGSLRLTCAASGSIFALYAMGWYRQAPGKERELVAANADSVKGRFTISRDNAKNTVYLQMNSLKPEETAVYYCAKDITGGSGLGSWIYSEYDYWGQGTQVTVSS
Completion: low polyreactivity

Prompt: Next sequence: QVQLVESGGGLVQAGGSLRLSCAASGRTFYTNTMGWYRPAPGKERELVAAISYSGSSTYYADSVKGRFTISRDNAKNTVYLQMNSLKPEDTAVYYCNAVRYYRYYYWGQGTQVTVSS
Completion: low polyreactivity

Prompt: What do you get for QVQLVESGGGLVQAGGSLRLSCAASGITFYWYAMGWYRQAPGKERELVASITGNGGGTSYADSVKGRFTISRDNAKNTVYLQMNSLKPEDTAVYYCNTSVGGKEYDSWGQGTQVTVSS ?
Completion: low polyreactivity

Prompt: Now the sequence QVQLVESGGGLVQAGGSLRLSCAASGSIFTVYAMGWYRQAPGKERELVATITTGGSTNYADSVKGRFTISRDNAKTTVYLQMNSLKPEDTAVYYCAATYWSWISLRFYWGQGTQVTVSS
Completion: low polyreactivity

Where these numbers come from: the nanobody polyreactivity screen of Harvey et al. (2022)
